Experiment: chemical genetic growth profiling, strain panel (AID 1159580);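 further: tested at 20 µM; growth read once vehicle control cultures reached saturation at 30 °C; lower values mean less growth of the strain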
Conditions: S. cerevisiae deletion strains, growth OD, locus YHR030C, strain SLT2
About 2,000 (36%) of roughly 5,500 compounds were called active. Another 18% or so got no clear call; they are omitted. No stated cut-off is given here; in the data, active means normalized growth mostly below about 0.91 (no sharp cut-off); inconclusive means no clear call, values can overlap the other calls; inactive means mostly above about 0.92. This is one part of the list.
Outcome (select one): active, inactive

# count of solved cases: 2
Clc1cc(Cl)cc(C=NCc2ccccc2)c1
active
O=C(Nc1cc(Cl)ccc1O)c1ccccc1CSc1ccc(Cl)cc1
active

Ask | How did this test come out for `CN(C)c1ccc(-c2n[nH]c(=O)c3ccccc23)cc1[N+](=O)[O-]` ?
Reply | inactive

Ask | How did this test come out for Cc1ccc(NC(=S)C(C#N)C(=O)N2CCOCC2)c(C)c1 (configuration not stated) ?
Reply | inactive

Ask | How did this test come out for COc1cc2nc(N3CCN(C(=O)C4COc5ccccc5O4)CC3)nc(N)c2cc1OC (configuration not stated) ?
Reply | inactive
